assay-comment: Solid-state (bulk) stability after 9 weeks storage, HPLC
Assay type: physicochemical
particulars: solid state, relative retention time 1.66; 9 weeks at 50° C.; read-out: % Degradation (% peak area @ 50° C.-% peak area @ 4° C.)
Procedure: Approximately 1 mg of each of the free base, hydrochloride, hydrobromide and fumarate salts of Compound (I) were accurately weighed into small glass vials. These were stored for 9 weeks at each of 4° C./ambient humidity, 40° C./ambient humidity, 40° C./75% RH and 50° C./ambient humidity. […] The stability of the samples was quantified by investigating the appearance of new peaks in the chromatograms of stored samples and the increase in peaks present compared to control samples stored at 4° C.
quantity-measured: degraded at 1512 h (%)
Unit % implied. Number only.

degraded at 1512 h measured on CNS(=O)(=O)Cc1ccc2[nH]cc(C[C@H]3CCCN3C)c2c1 [Free base] = 0.17
